From: the supplement of paper PMC12076712

Target: TNIK (UniProt Q9UKE5)
Sequence (Q9UKE5 whole entry, looked up): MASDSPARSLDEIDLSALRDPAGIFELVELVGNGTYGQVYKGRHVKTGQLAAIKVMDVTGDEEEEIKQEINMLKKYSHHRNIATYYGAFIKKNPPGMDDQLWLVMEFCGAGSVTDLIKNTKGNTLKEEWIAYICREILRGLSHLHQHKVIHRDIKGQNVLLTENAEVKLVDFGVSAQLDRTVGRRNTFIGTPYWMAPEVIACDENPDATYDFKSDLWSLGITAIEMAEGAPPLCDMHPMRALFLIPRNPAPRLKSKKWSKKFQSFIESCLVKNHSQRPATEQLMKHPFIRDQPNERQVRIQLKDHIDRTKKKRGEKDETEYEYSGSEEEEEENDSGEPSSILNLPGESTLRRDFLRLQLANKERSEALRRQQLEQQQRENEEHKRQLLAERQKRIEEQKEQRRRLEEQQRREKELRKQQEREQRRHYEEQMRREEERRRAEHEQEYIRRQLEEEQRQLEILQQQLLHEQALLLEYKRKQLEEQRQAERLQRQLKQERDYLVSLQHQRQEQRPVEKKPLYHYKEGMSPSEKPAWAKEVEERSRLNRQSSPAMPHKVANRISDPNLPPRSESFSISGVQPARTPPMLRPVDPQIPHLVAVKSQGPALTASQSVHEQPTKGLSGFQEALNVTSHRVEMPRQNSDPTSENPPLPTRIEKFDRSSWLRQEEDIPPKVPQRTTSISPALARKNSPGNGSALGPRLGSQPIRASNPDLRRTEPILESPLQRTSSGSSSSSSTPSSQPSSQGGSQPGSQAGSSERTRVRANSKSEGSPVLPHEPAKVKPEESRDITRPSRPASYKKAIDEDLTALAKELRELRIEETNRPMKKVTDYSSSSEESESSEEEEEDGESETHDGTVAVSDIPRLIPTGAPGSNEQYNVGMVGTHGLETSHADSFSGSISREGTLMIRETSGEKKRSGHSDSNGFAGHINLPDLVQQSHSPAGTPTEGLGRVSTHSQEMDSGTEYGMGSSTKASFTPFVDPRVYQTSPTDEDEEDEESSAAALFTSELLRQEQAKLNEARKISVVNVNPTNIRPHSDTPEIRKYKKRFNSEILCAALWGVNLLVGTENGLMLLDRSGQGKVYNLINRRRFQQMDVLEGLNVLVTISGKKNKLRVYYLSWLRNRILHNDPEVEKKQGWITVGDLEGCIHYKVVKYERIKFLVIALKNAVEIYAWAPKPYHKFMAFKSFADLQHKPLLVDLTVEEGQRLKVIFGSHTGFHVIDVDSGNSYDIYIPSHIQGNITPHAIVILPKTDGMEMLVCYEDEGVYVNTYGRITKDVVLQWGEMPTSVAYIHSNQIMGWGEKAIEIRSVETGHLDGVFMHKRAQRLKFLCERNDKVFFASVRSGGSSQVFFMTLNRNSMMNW
Experiment: pIC50, kinobeads binding competition
Details: cell material: Lysate mix
Listed compounds paired with reported pIC50

O=C(NCCNC(=O)c1cc(Nc2cc(C3CC3)[nH]n2)nc(N2CCN(Cc3ccc(S(=O)(=O)F)cc3)CC2)n1)OC1CC/C=C/CCC1 (centres undefined)    < 4.52

Query pIC50 on TNIK (UniProt Q9UKE5) for Cc1cc(Nc2cc(C(=O)NCCNC(=O)OC3CC/C=C/CCC3)nc(N3CCN(Cc4ccc(S(=O)(=O)F)cc4)CC3)n2)n[nH]1 (centres undefined) < 4.52

Same read-out for C#CCNC(=O)c1cc(Nc2cc(C3CC3)[nH]n2)nc(N2CCN(Cc3ccc(S(=O)(=O)F)cc3)CC2)n1 ? 5.27

Another compound to check: CCNC(=O)c1cc(Nc2cc(C)[nH]n2)nc(N2CCN(Cc3ccc(S(=O)(=O)F)cc3)CC2)n1 < 4.52
